Data credit: patent US7410960B2

System: L1210/DDP cisplatin-resistant cells
Test: CC growth inhibition assay, L1210/DDP
Type: cell-based, mouse
Details: Test CC, 40 μM highest dose tested
Text: The data presented in Table3 is the results collected from the growth inhibition studies of selected compounds with the following cell lines: L1210 (mouse leukaemia cells), 2008 (human ovarian carcinoma cells), L1210/DDP and C13*5 (acquired cisplatin resistance) and SKOV-3 (intrinsic cisplatin resistance).
assay_readout: IC50 (µM)
Numbers only, in µM.

Reported IC50 of N[C@H]1CCCC[C@@H]1N.[O-][Cl+3]([O-])([O-])[O-].[O-][Cl+3]([O-])([O-])[O-].[Pt+2].c1cnc2c(c1)ccc1cccnc12 [[Pt(phen)(S,S-dach)](ClO4)2] : 0.28
